Data credit: PubChem BioAssay AID1963978

- Test system: 616215-338-R-J1-PDC spheroids with HUVEC/MSC, viability
- Assay procedure: Anticancer human tumor 616215-338-R-J1-PDC patient-derived colon adenocarcinoma cell line growth inhibition [PI3K]
- Condition context: second compound 3.16 µM; first compound 0.0316 µM; stronger effect = lower value

Molecule: C=CC(=O)N1CCN(c2nc(=O)n(-c3c(C)ccnc3C(C)C)c3nc(-c4c(O)cccc4F)c(F)cc23)C(C)C1 (configuration not stated) + CC(Nc1ncnc2nc[nH]c12)c1cc2cccc(Cl)c2c(=O)n1-c1ccccc1
Unit: %
viability, T/C: 101
--
Molecule: C#Cc1c(F)ccc2cc(O)cc(-c3ncc4c(N5CC6CCC(C5)N6)nc(OCC56CCCN5CC(F)C6)nc4c3F)c12 (configuration not stated) + Cc1nc(NC(=O)N2CCCC2C(N)=O)sc1-c1ccnc(C(C)(C)C(F)(F)F)c1
Unit: %
viability, T/C: 112
--
Molecule: CC(C)NCC(C(=O)N1CCN(c2ncnc3c2C(C)CC3O)CC1)c1ccc(Cl)cc1 (configuration not stated) + Cc1nc(NC(=O)N2CCCC2C(N)=O)sc1-c1ccnc(C(C)(C)C(F)(F)F)c1
Unit: %
viability, T/C: 111
--
Molecule: CC(=O)c1c(C)c2cnc(Nc3ccc(N4CCNCC4)cn3)nc2n(C2CCCC2)c1=O + CC(Nc1ncnc2nc[nH]c12)c1cc2cccc(Cl)c2c(=O)n1-c1ccccc1
Unit: %
viability, T/C: 101
--
Molecule: CC1(C)CCC(CN2CCN(c3ccc(C(=O)NS(=O)(=O)c4ccc(NCC5CCOCC5)c([N+](=O)[O-])c4)c(Oc4cnc5[nH]ccc5c4)c3)CC2)=C(c2ccc(Cl)cc2)C1 + CC(Nc1ncnc2nc[nH]c12)c1cc2cccc(Cl)c2c(=O)n1-c1ccccc1
Unit: %
viability, T/C: 108
--
Molecule: CCCS(=O)(=O)Nc1ccc(F)c(C(=O)c2c[nH]c3ncc(-c4ccc(Cl)cc4)cc23)c1F + Cc1nc(NC(=O)N2CCCC2C(N)=O)sc1-c1ccnc(C(C)(C)C(F)(F)F)c1
Unit: %
viability, T/C: 96.8
--
Molecule: CNC(=O)c1ccc(N2C(=S)N(c3ccc(C#N)c(C(F)(F)F)c3)C(=O)C2(C)C)cc1F + Cc1nc(NC(=O)N2CCCC2C(N)=O)sc1-c1ccnc(C(C)(C)C(F)(F)F)c1
Unit: %
viability, T/C: 101
--
Molecule: Cn1ncnc1[C@H]1c2n[nH]c(=O)c3cc(F)cc(c23)N[C@@H]1c1ccc(F)cc1 + Cc1nc(NC(=O)N2CCCC2C(N)=O)sc1-c1ccnc(C(C)(C)C(F)(F)F)c1
Unit: %
viability, T/C: 92.5
--
Molecule: C#Cc1c(F)ccc2cc(O)cc(-c3ncc4c(N5CC6CCC(C5)N6)nc(OCC56CCCN5CC(F)C6)nc4c3F)c12 (configuration not stated) + CC(Nc1ncnc2nc[nH]c12)c1cc2cccc(Cl)c2c(=O)n1-c1ccccc1
Unit: %
viability, T/C: 111
--
Molecule: CC(C)n1nc(-c2ccc3oc(N)nc3c2)c2c(N)ncnc21 + CC(Nc1ncnc2nc[nH]c12)c1cc2cccc(Cl)c2c(=O)n1-c1ccccc1
Unit: %
viability, T/C: 128
--
Molecule: C=CC(=O)N1CCN(c2nc(=O)n(-c3c(C)ccnc3C(C)C)c3nc(-c4c(O)cccc4F)c(F)cc23)C(C)C1 (configuration not stated) + Cc1nc(NC(=O)N2CCCC2C(N)=O)sc1-c1ccnc(C(C)(C)C(F)(F)F)c1
Unit: %
viability, T/C: 98.6
--
Molecule: CCCS(=O)(=O)Nc1ccc(F)c(C(=O)c2c[nH]c3ncc(-c4ccc(Cl)cc4)cc23)c1F + CC(Nc1ncnc2nc[nH]c12)c1cc2cccc(Cl)c2c(=O)n1-c1ccccc1
Unit: %
viability, T/C: 100
--
Molecule: CC(C)NCC(C(=O)N1CCN(c2ncnc3c2C(C)CC3O)CC1)c1ccc(Cl)cc1 (configuration not stated) + CC(Nc1ncnc2nc[nH]c12)c1cc2cccc(Cl)c2c(=O)n1-c1ccccc1
Unit: %
viability, T/C: 89.2
--
Molecule: CC(C)n1nc(-c2ccc3oc(N)nc3c2)c2c(N)ncnc21 + Cc1nc(NC(=O)N2CCCC2C(N)=O)sc1-c1ccnc(C(C)(C)C(F)(F)F)c1
Unit: %
viability, T/C: 83.8
--
Molecule: CNC(=O)c1ccc(N2C(=S)N(c3ccc(C#N)c(C(F)(F)F)c3)C(=O)C2(C)C)cc1F + CC(Nc1ncnc2nc[nH]c12)c1cc2cccc(Cl)c2c(=O)n1-c1ccccc1
Unit: %
viability, T/C: 95.6
--
Molecule: Cn1nccc1Nc1nccc(-c2ccn(C(CO)c3ccc(Cl)c(F)c3)c(=O)c2)n1 (configuration not stated) + CC(Nc1ncnc2nc[nH]c12)c1cc2cccc(Cl)c2c(=O)n1-c1ccccc1
Unit: %
viability, T/C: 99.1
--
Molecule: CC1(C)CCC(Nc2ncc(C(F)(F)F)c(-c3c[nH]c4c(P(C)(C)=O)c(C#N)ccc34)n2)CN1 (configuration not stated) + CC(Nc1ncnc2nc[nH]c12)c1cc2cccc(Cl)c2c(=O)n1-c1ccccc1
Unit: %
viability, T/C: 44.1
--
Molecule: CCN1CCN(Cc2ccc(Nc3ncc(F)c(-c4cc(F)c5nc(C)n(C(C)C)c5c4)n3)nc2)CC1 + CC(Nc1ncnc2nc[nH]c12)c1cc2cccc(Cl)c2c(=O)n1-c1ccccc1
Unit: %
viability, T/C: 123
--
Molecule: CC(Cn1ccc(-c2ccc(C#N)c(Cl)c2)n1)NC(=O)c1cc(C(C)O)[nH]n1 (configuration not stated) + Cc1nc(NC(=O)N2CCCC2C(N)=O)sc1-c1ccnc(C(C)(C)C(F)(F)F)c1
Unit: %
viability, T/C: 101
--
Molecule: CC1(C)CCC(Nc2ncc(C(F)(F)F)c(-c3c[nH]c4c(P(C)(C)=O)c(C#N)ccc34)n2)CN1 (configuration not stated) + Cc1nc(NC(=O)N2CCCC2C(N)=O)sc1-c1ccnc(C(C)(C)C(F)(F)F)c1
Unit: %
viability, T/C: 53.5
--
Molecule: Cn1ncc(Cl)c1-c1cc(C(=O)NC(CN)Cc2cccc(F)c2)sc1Cl (configuration not stated) + Cc1nc(NC(=O)N2CCCC2C(N)=O)sc1-c1ccnc(C(C)(C)C(F)(F)F)c1
Unit: %
viability, T/C: 91.8
--
Molecule: Cn1ncnc1[C@H]1c2n[nH]c(=O)c3cc(F)cc(c23)N[C@@H]1c1ccc(F)cc1 + CC(Nc1ncnc2nc[nH]c12)c1cc2cccc(Cl)c2c(=O)n1-c1ccccc1
Unit: %
viability, T/C: 94.9

----------
- System: 616215-338-R-J1-PDC spheroids with HUVEC/MSC, viability
- Assay procedure: Anticancer human tumor 616215-338-R-J1-PDC cell line growth inhibition [PI3K]; active = viability on the fitted dose curve at most 10% of control; inactive = the rest;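 also: spheroids exposed to agents for seven days before the viability read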
- Condition context: second compound 1 µM; first compound 0.949 µM
Outcome codes: 1 for active, 0 for inactive

Compound: Cn1cnc2c(F)c(Nc3ccc(Br)cc3Cl)c(C(=O)NOCCO)cc21 + COc1c(OCCCN2CCOCC2)ccc2c3n(c(=NC(=O)c4cnc(N)nc4)nc12)CCN3
Measured on: 616215-338-R-J1-PDC spheroids with HUVEC/MSC, viability
Class name: 1
--
Compound: Cn1cnc2c(F)c(Nc3ccc(Br)cc3Cl)c(C(=O)NOCCO)cc21 + CC(Nc1ccc2c(c1)OCCn1cc(N3C(=O)OCC3C(F)F)nc1-2)C(N)=O
Measured on: 616215-338-R-J1-PDC spheroids with HUVEC/MSC, viability
Class name: 0
--
Compound: Cn1cnc2c(F)c(Nc3ccc(Br)cc3Cl)c(C(=O)NOCCO)cc21 + CC(Nc1ncnc2nc[nH]c12)c1cc2cccc(Cl)c2c(=O)n1-c1ccccc1
Measured on: 616215-338-R-J1-PDC spheroids with HUVEC/MSC, viability
Class name: 0
--
Compound: Cn1cnc2c(F)c(Nc3ccc(Br)cc3Cl)c(C(=O)NOCCO)cc21 + Cc1nc(NC(=O)N2CCCC2C(N)=O)sc1-c1ccnc(C(C)(C)C(F)(F)F)c1
Measured on: 616215-338-R-J1-PDC spheroids with HUVEC/MSC, viability
Class name: 0

----------
# Lookup of reported viability, T/C keyed by entry
- System: 616215-338-R-J1-PDC spheroids with HUVEC/MSC, viability
- Assay procedure: Anticancer human tumor 616215-338-R-J1-PDC cell line growth inhibition [PI3K];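 also: spheroids exposed to agents for seven days before the viability read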
- Condition context: second compound 0.316 µM; first compound 0.1 µM; stronger effect = lower value

Compound: CC(C)NCC(C(=O)N1CCN(c2ncnc3c2C(C)CC3O)CC1)c1ccc(Cl)cc1 (stereo not given) + Cc1nc(NC(=O)N2CCCC2C(N)=O)sc1-c1ccnc(C(C)(C)C(F)(F)F)c1
Unit: %
viability, T/C: 92.9
//
Compound: CNC(=O)c1ccc(N2C(=S)N(c3ccc(C#N)c(C(F)(F)F)c3)C(=O)C2(C)C)cc1F + CC(Nc1ccc2c(c1)OCCn1cc(N3C(=O)OCC3C(F)F)nc1-2)C(N)=O
Unit: %
viability, T/C: 113
//
Compound: Cn1ncc(Cl)c1-c1cc(C(=O)NC(CN)Cc2cccc(F)c2)sc1Cl (stereo not given) + COc1c(OCCCN2CCOCC2)ccc2c3n(c(=NC(=O)c4cnc(N)nc4)nc12)CCN3
Unit: %
viability, T/C: 35
//
Compound: CC(=O)c1c(C)c2cnc(Nc3ccc(N4CCNCC4)cn3)nc2n(C2CCCC2)c1=O + CC(Nc1ncnc2nc[nH]c12)c1cc2cccc(Cl)c2c(=O)n1-c1ccccc1
Unit: %
viability, T/C: 114
//
Compound: C#Cc1c(F)ccc2cc(O)cc(-c3ncc4c(N5CC6CCC(C5)N6)nc(OCC56CCCN5CC(F)C6)nc4c3F)c12 (stereo not given) + COc1c(OCCCN2CCOCC2)ccc2c3n(c(=NC(=O)c4cnc(N)nc4)nc12)CCN3
Unit: %
viability, T/C: 42.4
